# Target Or Test System: dopamine D1 receptor (D1R) (Mus musculus, UniProt Q61616)
# Construct: gene Drd1; native full-length receptor, endogenous in membranes of STHdh^Q7 mouse striatal cells; part may be in D1R-H3R heteromers
# Sequence (Q61616 whole entry): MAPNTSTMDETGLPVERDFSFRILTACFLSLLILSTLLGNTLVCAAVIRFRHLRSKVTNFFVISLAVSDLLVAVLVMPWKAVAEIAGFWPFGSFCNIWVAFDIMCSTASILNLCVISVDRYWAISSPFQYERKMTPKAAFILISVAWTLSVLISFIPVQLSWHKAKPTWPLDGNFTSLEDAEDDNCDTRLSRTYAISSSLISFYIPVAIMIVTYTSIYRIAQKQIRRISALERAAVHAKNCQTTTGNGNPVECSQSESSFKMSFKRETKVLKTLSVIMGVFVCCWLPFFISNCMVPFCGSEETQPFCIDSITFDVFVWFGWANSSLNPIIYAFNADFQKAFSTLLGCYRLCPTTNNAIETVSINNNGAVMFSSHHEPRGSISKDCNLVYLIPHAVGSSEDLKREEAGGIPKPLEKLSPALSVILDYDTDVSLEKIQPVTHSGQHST
# Set-up: species or system STHdh^Q7 or STHdh^Q111 mouse striatal cells; radioligand binding to striatal cell membranes, KD from saturation and competition curves
# Condition Context: STHdh^Q111 cell membranes; binder
Property Name: Kd (pM)
Answers are plain numbers, in pM.

The measured Kd associated with CN1CCc2cc(Cl)c(O)cc2[C@@H](c2ccccc2)C1 [[^3H] SCH 23390] reads 160

====

# Target Or Test System: H3R (Mus musculus, UniProt P58406)
# Construct: gene Hrh3; native receptor, endogenous in mouse brain tissue membranes
# Sequence (P58406 whole entry): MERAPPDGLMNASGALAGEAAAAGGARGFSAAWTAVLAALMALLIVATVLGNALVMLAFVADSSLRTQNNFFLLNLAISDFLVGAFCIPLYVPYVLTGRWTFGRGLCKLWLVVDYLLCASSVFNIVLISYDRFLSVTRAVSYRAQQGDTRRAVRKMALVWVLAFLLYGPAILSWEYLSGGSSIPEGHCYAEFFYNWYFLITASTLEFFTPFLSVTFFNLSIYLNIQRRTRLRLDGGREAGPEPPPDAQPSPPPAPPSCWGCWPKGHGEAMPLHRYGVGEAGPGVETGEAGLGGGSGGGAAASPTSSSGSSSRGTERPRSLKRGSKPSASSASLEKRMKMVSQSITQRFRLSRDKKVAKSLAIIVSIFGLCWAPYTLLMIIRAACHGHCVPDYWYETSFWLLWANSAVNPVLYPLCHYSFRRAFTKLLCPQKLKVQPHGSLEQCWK
# Measurement Notes: tissue or organelle
# Design: species or system brain tissue of 8-month-old Hdh^Q7/Q7 or Hdh^Q7/Q111 mice; radioligand binding to mouse brain region membranes, KD from saturation and competition curves
# Condition Context: Hippocampus; 8-month-old Hdh^Q7/Q7 mice
Property Name: Kd

The measured Kd associated with C[C@@H](N)Cc1c[nH]cn1 [[^3H] R-α-methyl histamine] reads 0.2 nM

Cited source for all entries: paper PMC7282811
